Recorded values, source paper PMC6982127.

- assayed_target: ObgE (Escherichia coli, UniProt P42641, E265K)
- Construct: full-length ObgE, N-terminal His6 tag (pET28a-obgE), expressed in E. coli BL21(DE3) pLysS, Ni-NTA and size exclusion, made nucleotide-free by alkaline phosphatase
- Sequence (P42641 whole entry E265K): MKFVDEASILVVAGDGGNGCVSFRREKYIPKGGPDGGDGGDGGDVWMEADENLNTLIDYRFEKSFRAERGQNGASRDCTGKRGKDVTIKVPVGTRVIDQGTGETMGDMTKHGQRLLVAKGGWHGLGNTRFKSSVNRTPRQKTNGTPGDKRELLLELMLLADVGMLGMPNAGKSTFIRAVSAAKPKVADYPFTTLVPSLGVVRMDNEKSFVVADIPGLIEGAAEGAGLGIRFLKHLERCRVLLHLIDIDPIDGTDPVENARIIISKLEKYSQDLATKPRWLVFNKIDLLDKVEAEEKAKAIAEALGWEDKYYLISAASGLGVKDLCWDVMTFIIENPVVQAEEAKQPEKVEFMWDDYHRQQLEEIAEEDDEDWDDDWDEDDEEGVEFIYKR
- protocol_summary: isothermal titration calorimetry
- Format: binding
- protocol_conditions: read-out: Equilibrium Dissociation Constants / KD(GTPγS)
quantity: Kd

In [3]: df
Out[3]:
                        structure_as_smiles  result
0  Nc1nc2c(ncn2[C@@H]2O[C@H](COP(=O)(O)OP(=O)(O)OP(O)(O)=S)[C@@H](O)[C@H]2O)c(=O)[nH]1  5.7 µM

====

- assayed_target: ObgE (Escherichia coli, UniProt P42641, E265K)
- Construct: full-length ObgE, N-terminal His6 tag (pET28a-obgE), expressed in E. coli BL21(DE3) pLysS, Ni-NTA and size exclusion, made nucleotide-free by alkaline phosphatase
- protocol_summary: isothermal titration calorimetry
- Assay type: binding
- protocol_conditions: read-out: Equilibrium Dissociation Constants / KD(ppGpp)
- From the text: isothermal titration calorimetry on ObgE
quantity: Kd (nM)

In [3]: df
Out[3]:
                                   compound  result
0  Nc1nc2c(ncn2[C@@H]2O[C@H](COP(=O)(O)OP(=O)(O)O)[C@@H](OP(=O)(O)OP(=O)(O)O)[C@H]2O)c(=O)[nH]1 [ppGpp]     310

====

- assayed_target: ObgE (Escherichia coli, UniProt P42641, E265K)
- Construct: full-length ObgE, N-terminal His6 tag (pET28a-obgE), expressed in E. coli BL21(DE3) pLysS, Ni-NTA and size exclusion, made nucleotide-free by alkaline phosphatase
- protocol_summary: isothermal titration calorimetry
- Type: binding
- protocol_conditions: read-out: Equilibrium Dissociation Constants / KD(GDP)
quantity: Kd

>>> df
                                   molecule                            assayed_target  quantity  result
0  Nc1nc2c(ncn2[C@@H]2O[C@H](COP(=O)(O)OP(=O)(O)O)[C@@H](O)[C@H]2O)c(=O)[nH]1 [GDP]  ObgE (Escherichia coli, UniProt P42641, E265K)        Kd  250 nM

====

- assayed_target: ObgE (Escherichia coli, UniProt P42641, DEL153-156)
- Construct: full-length ObgE, N-terminal His6 tag (pET28a-obgE), expressed in E. coli BL21(DE3) pLysS, Ni-NTA and size exclusion, made nucleotide-free by alkaline phosphatase
- Sequence (P42641 with tags, fused parts or gaps DEL153-156): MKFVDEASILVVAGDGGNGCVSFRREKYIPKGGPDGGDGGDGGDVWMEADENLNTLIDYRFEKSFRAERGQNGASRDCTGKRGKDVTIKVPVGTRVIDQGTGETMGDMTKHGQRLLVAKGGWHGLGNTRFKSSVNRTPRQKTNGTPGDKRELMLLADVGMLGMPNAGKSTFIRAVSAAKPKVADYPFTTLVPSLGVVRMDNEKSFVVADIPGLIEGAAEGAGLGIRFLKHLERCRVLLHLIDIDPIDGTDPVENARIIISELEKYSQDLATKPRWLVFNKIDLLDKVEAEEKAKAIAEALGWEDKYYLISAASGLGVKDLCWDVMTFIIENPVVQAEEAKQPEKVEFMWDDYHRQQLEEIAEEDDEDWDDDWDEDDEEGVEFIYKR
- protocol_summary: isothermal titration calorimetry
- Format: binding
- protocol_conditions: read-out: Equilibrium Dissociation Constants / KD(GDP)
pKd: −log10 of the molar value.
quantity: pKd

                                   compound  result
0  Nc1nc2c(ncn2[C@@H]2O[C@H](COP(=O)(O)OP(=O)(O)O)[C@@H](O)[C@H]2O)c(=O)[nH]1 [GDP]    6.22

====

- assayed_target: ObgE (Escherichia coli, UniProt P42641, H234R)
- Construct: full-length ObgE, N-terminal His6 tag (pET28a-obgE), expressed in E. coli BL21(DE3) pLysS, Ni-NTA and size exclusion, made nucleotide-free by alkaline phosphatase
- Sequence (P42641 whole entry H234R): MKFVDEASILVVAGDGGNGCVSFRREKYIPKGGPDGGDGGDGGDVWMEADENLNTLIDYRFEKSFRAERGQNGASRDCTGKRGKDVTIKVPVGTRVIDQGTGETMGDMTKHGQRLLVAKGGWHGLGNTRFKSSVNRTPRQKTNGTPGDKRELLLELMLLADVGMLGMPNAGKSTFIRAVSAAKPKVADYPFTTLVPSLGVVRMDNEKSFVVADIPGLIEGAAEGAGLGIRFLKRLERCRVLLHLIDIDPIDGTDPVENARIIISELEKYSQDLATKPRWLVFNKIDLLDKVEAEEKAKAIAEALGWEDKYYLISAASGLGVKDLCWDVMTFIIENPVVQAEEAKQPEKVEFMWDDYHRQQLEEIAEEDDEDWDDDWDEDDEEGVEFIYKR
- protocol_summary: isothermal titration calorimetry
- Format: binding
- protocol_conditions: read-out: Equilibrium Dissociation Constants / KD(ppGpp)
- From the text: isothermal titration calorimetry on ObgE
quantity: Kd (nM)

                                   compound  result
0  Nc1nc2c(ncn2[C@@H]2O[C@H](COP(=O)(O)OP(=O)(O)O)[C@@H](OP(=O)(O)OP(=O)(O)O)[C@H]2O)c(=O)[nH]1 [ppGpp]     600

====

- assayed_target: ObgE (Escherichia coli, UniProt P42641, T174I)
- Construct: full-length ObgE, N-terminal His6 tag (pET28a-obgE), expressed in E. coli BL21(DE3) pLysS, Ni-NTA and size exclusion, made nucleotide-free by alkaline phosphatase
- protocol_summary: isothermal titration calorimetry
- Format: binding
- protocol_conditions: read-out: Equilibrium Dissociation Constants / KD(GDP)
pKd: −log10 of the molar value.
quantity: pKd

In [3]: df
Out[3]:
                                   compound  result
0  Nc1nc2c(ncn2[C@@H]2O[C@H](COP(=O)(O)OP(=O)(O)O)[C@@H](O)[C@H]2O)c(=O)[nH]1 [GDP]    3.94

====

- assayed_target: ObgE (Escherichia coli, UniProt P42641, H234R)
- Construct: full-length ObgE, N-terminal His6 tag (pET28a-obgE), expressed in E. coli BL21(DE3) pLysS, Ni-NTA and size exclusion, made nucleotide-free by alkaline phosphatase
- protocol_summary: isothermal titration calorimetry
- Type: binding
- protocol_conditions: read-out: Equilibrium Dissociation Constants / KD(GTPγS)
pKd: −log10 of the molar value.
quantity: pKd

                        structure_as_smiles                            assayed_target  quantity  result
0  Nc1nc2c(ncn2[C@@H]2O[C@H](COP(=O)(O)OP(=O)(O)OP(O)(O)=S)[C@@H](O)[C@H]2O)c(=O)[nH]1  ObgE (Escherichia coli, UniProt P42641, H234R)       pKd    5.43

====

- assayed_target: ObgE (Escherichia coli, UniProt P42641, T174I)
- Construct: full-length ObgE, N-terminal His6 tag (pET28a-obgE), expressed in E. coli BL21(DE3) pLysS, Ni-NTA and size exclusion, made nucleotide-free by alkaline phosphatase
- protocol_summary: isothermal titration calorimetry
- Type: binding
- protocol_conditions: read-out: Equilibrium Dissociation Constants / KD(ppGpp)
quantity: Kd (µM)

>>> print(df.to_string())
                        structure_as_smiles  result_unit  result
0  Nc1nc2c(ncn2[C@@H]2O[C@H](COP(=O)(O)OP(=O)(O)O)[C@@H](OP(=O)(O)OP(=O)(O)O)[C@H]2O)c(=O)[nH]1           µM      81

====

- assayed_target: ObgE (Escherichia coli, UniProt P42641, T174I)
- Construct: full-length ObgE, N-terminal His6 tag (pET28a-obgE), expressed in E. coli BL21(DE3) pLysS, Ni-NTA and size exclusion, made nucleotide-free by alkaline phosphatase
- protocol_summary: isothermal titration calorimetry
- Format: binding
- protocol_conditions: read-out: Equilibrium Dissociation Constants / KD(GTPγS)
quantity: Kd (µM)

In [3]: df
Out[3]:
                        structure_as_smiles  quantity  result
0  Nc1nc2c(ncn2[C@@H]2O[C@H](COP(=O)(O)OP(=O)(O)OP(O)(O)=S)[C@@H](O)[C@H]2O)c(=O)[nH]1        Kd     160
